Reported hit_pair_ratio values for the following sequences.
System: USP8 MIT domain
Experiment: Peptide-phage display-based deep mutational scanning (DMS), USP8 MIT domain
Assay type: binding, human
Settings: sheet S3.B_ProP-PD_pairs; bait USP8_MIT__P40818_1_142; ratio within the wild-type/mutant pair, larger over smaller averaged fraction (direction from fraction_wt and fraction_mut)
// keep it numeric: no unit symbol after the value

Below, 2 sequences whose answers are already recorded.
[[record]]
seq_string = "MDDDYEAYHSLFLNLL"
quantity_name = "hit_pair_ratio"
observed_value = 33.93

[[record]]
seq_string = "MDDDYEAYQSLFLSLL"
quantity_name = "hit_pair_ratio"
observed_value = 28.27


Query: API: value(readout=hit_pair_ratio, system=USP8 MIT domain) for record SDVSDIESRIAALRAA
Reply: 11.31

Query: Provide the documented hit_pair_ratio with USP8 MIT domain as the system for MDDDYEAYHSLFLMLL
Reply: 26.03

Query: Give USP8 MIT domain hit_pair_ratio for SMVSDIESRIAALRAA
Reply: 7.79

Query: What hit_pair_ratio appears in the records for this sequence with USP8 MIT domain? MEVSDIESRIAALRAA
Reply: 2.60
